Data provenance: ChEMBL document CHEMBL1201861

Test system: SW48;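 note: growth inhibition of SW48 cells, read out with a cell viability assay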
Test: cells
Type: functional, cell-based, Homo sapiens
Conditions: Homo sapiens, SW48
Description: SANGER: Inhibition of human SW48 cell growth in a cell viability assay.
pIC50: −log10 of the molar value.
Measured Endpoint: pIC50

>  <Compound>
Cc1ccc(Nc2nccc(N(C)c3ccc4c(C)n(C)nc4c3)n2)cc1S(N)(=O)=O

>  <Comparison Operator>
<

>  <Quantitative Readout>
5.10

$$$$
>  <Compound>
COc1ccc(-c2ccc3c(N4CCOC[C@@H]4C)nc(N4CCOC[C@@H]4C)nc3n2)cc1CO

>  <Comparison Operator>
=

>  <Quantitative Readout>
5.96

$$$$
>  <Compound>
COc1cc([C@@H]2c3cc4c(cc3[C@@H](O[C@@H]3O[C@@H]5CO[C@@H](C)O[C@H]5[C@H](O)[C@H]3O)[C@H]3COC(=O)[C@H]23)OCO4)cc(OC)c1O [ETOPOSIDE]

>  <Comparison Operator>
=

>  <Quantitative Readout>
6.06

$$$$

---

Test system: SCH
Assay: cells
Assay type: functional, cell-based, Homo sapiens
Conditions: Homo sapiens, SCH
Description: SANGER: Inhibition of human SCH cell growth in a cell viability assay.

>  <Molecule>
CCC(=O)N1CCN(c2ccc(-n3c(=O)ccc4cnc5ccc(-c6cnc7ccccc7c6)cc5c43)cc2C(F)(F)F)CC1

>  <System Tested>
SCH

>  <IC50>
0.14 µM

$$$$
>  <Molecule>
CCc1nc(N)nc(N)c1-c1ccc(Cl)cc1

>  <System Tested>
SCH

>  <IC50>
16.9 µM

$$$$
>  <Molecule>
C=C1C(=O)O[C@@H]2C3O[C@]3(C)CC/C=C(\C)CC[C@@H]12 (some centres undefined)

>  <System Tested>
SCH

>  <IC50>
> 5 µM

$$$$
>  <Molecule>
Cn1cncc1[C@@](N)(c1ccc(Cl)cc1)c1ccc2c(c1)c(-c1cccc(Cl)c1)cc(=O)n2C

>  <System Tested>
SCH

>  <IC50>
> 16 µM

$$$$
>  <Molecule>
CCOc1nc(NC(=O)Cc2cc(OC)ccc2OC)cc(N)c1C#N

>  <System Tested>
SCH

>  <IC50>
> 10 µM

$$$$
>  <Molecule>
COC(=O)CNC(=O)C(=O)OC

>  <System Tested>
SCH

>  <IC50>
> 4000 µM

$$$$
>  <Molecule>
CS(=O)(=O)CCNCc1ccc(-c2ccc3ncnc(Nc4ccc(OCc5cccc(F)c5)c(Cl)c4)c3c2)o1

>  <System Tested>
SCH

>  <IC50>
> 2 µM

$$$$
>  <Molecule>
CC(=O)O[C@@H]1[C@@H](OC(C)=O)[C@@H](O)[C@H](Oc2c(-c3ccc(O)cc3)oc3cc(O)cc(O)c3c2=O)O[C@H]1C

>  <System Tested>
SCH

>  <IC50>
> 10 µM

$$$$
>  <Molecule>
COc1ccc(-c2ccc3c(N4CCOC[C@@H]4C)nc(N4CCOC[C@@H]4C)nc3n2)cc1CO

>  <System Tested>
SCH;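 note: growth inhibition of human SCH cells, read out in a cell viability assay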

>  <IC50>
1.03 µM

$$$$

---

Test system: MZ7-mel
Test: cells
Type: functional, cell-based, Homo sapiens
Settings: Homo sapiens, MZ7-mel
Description: SANGER: Inhibition of human MZ7-mel cell growth in a cell viability assay.
pIC50: −log10 of the molar value.

>  <Compound>
COc1cc(F)c(F)c(Nc2ccc(I)cc2F)c1NS(=O)(=O)C1(CC(O)CO)CC1 (centres undefined)

>  <System Tested>
MZ7-mel

>  <Comparison Operator>
=

>  <pIC50>
6.43

$$$$
>  <Compound>
CS(=O)(=O)CCNCc1ccc(-c2ccc3ncnc(Nc4ccc(OCc5cccc(F)c5)c(Cl)c4)c3c2)o1

>  <System Tested>
MZ7-mel

>  <Comparison Operator>
<

>  <pIC50>
5.70

$$$$
>  <Compound>
C=C1C(=O)O[C@@H]2C3O[C@]3(C)CC/C=C(\C)CC[C@@H]12 (some centres undefined)

>  <System Tested>
MZ7-mel

>  <Comparison Operator>
<

>  <pIC50>
5.30

$$$$
>  <Compound>
CNC(=O)c1cc(Oc2ccc(NC(=O)Nc3ccc(Cl)c(C(F)(F)F)c3)cc2)ccn1

>  <System Tested>
MZ7-mel;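 note: growth inhibition of human MZ7-mel cells, measured by a cell viability assay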

>  <Comparison Operator>
=

>  <pIC50>
5.44

$$$$

---

Tested on: SK-MES-1
Test: cells
Assay type: functional, cell-based, Homo sapiens
Details: Homo sapiens, SK-MES-1
Description: SANGER: Inhibition of human SK-MES-1 cell growth in a cell viability assay.
pIC50: −log10 of the molar value.

>  <Record Smiles>
C[C@]1(O)C[C@@H](c2nc(-c3ccc4ccc(-c5ccccc5)nc4c3)c3c(N)nccn32)C1

>  <Comparison Operator>
<

>  <pIC50>
5.59

$$$$
>  <Record Smiles>
Cn1cncc1[C@@](N)(c1ccc(Cl)cc1)c1ccc2c(c1)c(-c1cccc(Cl)c1)cc(=O)n2C

>  <Comparison Operator>
=

>  <pIC50>
5.72

$$$$
>  <Record Smiles>
O=C(NOCC1CC1)c1ccc(F)c(F)c1Nc1ccc(I)cc1Cl

>  <Comparison Operator>
=

>  <pIC50>
5.23

$$$$
>  <Record Smiles>
O=C(c1cc(Cc2n[nH]c(=O)c3ccccc23)ccc1F)N1CCN(C(=O)C2CC2)CC1

>  <Comparison Operator>
<

>  <pIC50>
5.30

$$$$

---

Test system: TALL-1;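 note: growth inhibition of cultured human TALL-1 cells, read out by a cell viability assay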
Assay: cells
Type: functional, cell-based
Conditions: Homo sapiens
Description: SANGER: Inhibition of human TALL-1 cell growth in a cell viability assay.
pIC50: −log10 of the molar value.
Measured Endpoint: pIC50

>  <Compound>
Cc1cc([C@@H](C)Nc2ccccc2C(=O)O)c2nc(N3CCOCC3)cc(=O)n2c1

>  <Measured Endpoint>
pIC50

>  <Result>
< 5.29

$$$$
>  <Compound>
C[C@]1(O)C[C@@H](c2nc(-c3ccc4ccc(-c5ccccc5)nc4c3)c3c(N)nccn32)C1

>  <Measured Endpoint>
pIC50

>  <Result>
< 5.59

$$$$
>  <Compound>
O=C(/C=C/c1ccccc1)NC(NC(=S)Nc1cccc2cccnc12)C(Cl)(Cl)Cl (centres undefined)

>  <Measured Endpoint>
pIC50

>  <Result>
< 4.80

$$$$
>  <Compound>
CC1=C2C[C@H]3[C@@H](CC=C4C[C@@H](O)CC[C@@]43C)[C@@H]2CC[C@]12O[C@@H]1C[C@H](C)CN[C@H]1[C@H]2C

>  <Measured Endpoint>
pIC50

>  <Result>
< 4.80

$$$$

---

System: GI-ME-N
Test: cells
Format: functional, cell-based, Homo sapiens
Details: Homo sapiens, GI-ME-N
Description: SANGER: Inhibition of human GI-ME-N cell growth in a cell viability assay.
pIC50: −log10 of the molar value.

>  <Record Smiles>
C=CCc1cccc(/C=N/NC(=O)CN2CCN(Cc3ccccc3)CC2)c1O

>  <System Tested>
GI-ME-N

>  <Comparison Operator>
<

>  <pIC50>
5.59

$$$$
>  <Record Smiles>
Cc1ccc(Nc2nccc(N(C)c3ccc4c(C)n(C)nc4c3)n2)cc1S(N)(=O)=O

>  <System Tested>
GI-ME-N

>  <Comparison Operator>
<

>  <pIC50>
5.10

$$$$
>  <Record Smiles>
CCC1=C[C@@H]2CN(C1)Cc1c([nH]c3ccccc13)[C@@](C(=O)OC)(c1cc3c(cc1OC)N(C)[C@H]1[C@@](O)(C(=O)OC)[C@H](OC(C)=O)[C@]4(CC)C=CCN5CC[C@]31[C@@H]54)C2

>  <System Tested>
GI-ME-N

>  <Comparison Operator>
=

>  <pIC50>
8.24

$$$$
>  <Record Smiles>
Nc1ccn([C@@H]2O[C@H](CO)[C@@H](O)[C@@H]2O)c(=O)n1

>  <System Tested>
GI-ME-N

>  <Comparison Operator>
=

>  <pIC50>
5.78

$$$$

---

Test system: RKO
Test: cells
Type: functional, cell-based, Homo sapiens
Details: Homo sapiens, RKO
Description: SANGER: Inhibition of human RKO cell growth in a cell viability assay.
pIC50: −log10 of the molar value.
Measured Endpoint: pIC50

>  <Molecule>
COc1cc([C@@H]2c3cc4c(cc3[C@@H](O[C@@H]3O[C@@H]5CO[C@@H](C)O[C@H]5[C@H](O)[C@H]3O)[C@H]3COC(=O)[C@H]23)OCO4)cc(OC)c1O [ETOPOSIDE]

>  <Result>
6.33

$$$$
>  <Molecule>
CC1=C2C[C@H]3[C@@H](CC=C4C[C@@H](O)CC[C@@]43C)[C@@H]2CC[C@]12O[C@@H]1C[C@H](C)CN[C@H]1[C@H]2C [CYCLOPAMINE]

>  <Result>
< 4.80

$$$$
>  <Molecule>
CN(C)C/C=C/C(=O)Nc1cc2c(Nc3ccc(F)c(Cl)c3)ncnc2cc1O[C@H]1CCOC1 [AFATINIB]

>  <Result>
< 6.30

$$$$

---

Test system: MDA-MB-231
Test: cells
Assay type: functional, cell-based, Homo sapiens
Details: Homo sapiens, MDA-MB-231
Description: SANGER: Inhibition of human MDA-MB-231 cell growth in a cell viability assay.
Recorded measurements of IC50, one per entry

>  <Record Smiles>
Nc1ccn([C@@H]2O[C@H](CO)[C@@H](O)[C@@H]2O)c(=O)n1

>  <System Tested>
MDA-MB-231

>  <IC50>
> 2000 nM

$$$$
>  <Record Smiles>
CN(c1ncccc1CNc1nc(Nc2ccc3c(c2)CC(=O)N3)ncc1C(F)(F)F)S(C)(=O)=O

>  <System Tested>
MDA-MB-231

>  <IC50>
2500 nM

$$$$
>  <Record Smiles>
Cc1cnc(-c2cnc(NCCNc3ccc(C#N)cn3)nc2-c2ccc(Cl)cc2Cl)[nH]1

>  <System Tested>
MDA-MB-231

>  <IC50>
> 2560 nM

$$$$
>  <Record Smiles>
CN(C)C/C=C/C(=O)Nc1cc2c(Nc3ccc(F)c(Cl)c3)ncnc2cc1O[C@H]1CCOC1

>  <System Tested>
MDA-MB-231

>  <IC50>
> 500 nM

$$$$
